Measured values drawn from patent US7056679 for this set.

Biological target: T1, DGI-2 polypeptide (UniProt Q15004 1-111, limits assumed)
T1 construct: Vector-derived residues or tag of pIVEX2.3 are not described for this construct; also called KIAA0101
T1 sequence (looked up): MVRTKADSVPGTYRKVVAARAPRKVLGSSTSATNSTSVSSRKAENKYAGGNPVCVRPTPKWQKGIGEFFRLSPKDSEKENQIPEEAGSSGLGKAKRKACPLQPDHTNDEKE
Assay: phage ELISA, 405 nm; DGI-2 signal over LDH signal
DGI-2/LDH (OD) values by entry
Give the number; ratio is assumed, so skip it.

binder	quantity_unit	DGI-2/LDH (OD)
LTWGPQFGSLQVYSRHRGLPAAAGAPVPYPDPLEPRP (not shown: phage gene III coat protein (pCANTAB5E)) [DGI-2-20R-4-E4]	ratio	1.3
DGI-2-40F-3-C6 (not shown: phage gene III coat protein (pCANTAB5E)) peptide: QMFSKGNWLAHPEGGVALGLSRESQLFRSCREFGYCMGPMAAAGAPVPYPDPLEPRP	ratio	2.8

Continue with the binder presented below.
The recorded DGI-2/LDH (OD) for entry LTPYSLARSWLSGRPSTGATAAAGAPVPYPDPLEPRP (not shown: phage gene III coat protein (pCANTAB5E)) [DGI-2-20F-3-C12] equals 3.1
